experiment: Partition coefficient (logP); format: physicochemical; settings: octanol/water
Measured parameter: logP

Here is how some compounds turned out for logP.
{"columns": ["Compound", "logP"],
 "data": [
  ["Nc1nc(N)nc(-c2cc(Cl)ccc2Cl)n1 [IRSOGLADINE]", 1.97],
  ["Nc1nc(N)nc(-c2ccccc2Cl)n1", 1.19],
  ["Cc1c(NCC(C)C)c(=O)n(-c2ccccc2)c(=O)n1C", 1.48],
  ["COc1cc(CC(=O)O)cc(C2CCCCC2)c1", 3.66],
  ["CCc1ccccc1-c1nc(N)nc(N)n1", 1.65]
]}

(1) COc1ccc(-n2c(C)c(N(C)C)c(=O)n(C)c2=O)cc1
(2) COc1cc(CC(=O)O)cc(-c2ccc(Cl)cc2Cl)c1
Which value of logP is numerically greater: that of 1 or that of 2 ? Lab note: record the label of whichever item you select.
2
(2: 4.08, 1: 1.96)

Reference source for all entries: ChEMBL document CHEMBL1121426
